Property: Ratio; scope: individual compounds
Organism: Mus musculus
Test Protocol: Ratio of the drug concentration required to achieve 50% survival of fungal infection compared with untreated animals to that of ED50 of PSB
Type: functional

Worked examples, 2 compounds total:
Mol Smiles	Ratio
C/C=C1\NC(=O)[C@H]([C@@H](C)O)NC(=O)[C@H](CCN)NC(=O)[C@H](CCCCN)NC(=O)[C@H](CC(=O)NC2CC2)NC(=O)[C@@H](CCN)NC(=O)[C@@H](NC(=O)C[C@@H](O)CCCCCCCCCCC)COC(=O)[C@H]([C@H](O)CCl)NC(=O)[C@H]([C@H](O)C(=O)O)NC1=O	<5
C/C=C1\NC(=O)[C@H]([C@@H](C)O)NC(=O)[C@H](CCN)NC(=O)[C@H](CCCCN)NC(=O)[C@H](CC(=O)OC)NC(=O)[C@@H](CCN)NC(=O)[C@@H](NC(=O)C[C@@H](O)CCCCCCCCCCCCCCC)COC(=O)[C@H]([C@H](O)CCl)NC(=O)[C@H]([C@H](O)C(=O)OC)NC1=O	>20

Okay, next one:
## Task I'd like to know its Ratio. The compound in question is C/C=C1\NC(=O)[C@H]([C@@H](C)O)NC(=O)[C@H](CCNC(=O)OCc2oc(=O)oc2C)NC(=O)[C@H](CCCCNC(=O)OCc2oc(=O)oc2C)NC(=O)[C@H](CC(=O)O)NC(=O)[C@@H](CCNC(=O)OCc2oc(=O)oc2C)NC(=O)[C@@H](NC(=O)C[C@@H](O)CCCCCCCCCCCCCCC)COC(=O)[C@H]([C@H](O)CCl)NC(=O)[C@H]([C@H](O)C(=O)O)NC1=O
## Result >19
